target: HIV Env of isolate 3301.v1.c24 (clade AC) (HIV); assay: cell-based or functional assay
Readout Type: IC80 (µg/ml) with constrains (µg/mL)
Respond numerically; units are µg/mL and should not be typed.

{"Binder": "ePGDM9 (antibody, V domains shown) VH: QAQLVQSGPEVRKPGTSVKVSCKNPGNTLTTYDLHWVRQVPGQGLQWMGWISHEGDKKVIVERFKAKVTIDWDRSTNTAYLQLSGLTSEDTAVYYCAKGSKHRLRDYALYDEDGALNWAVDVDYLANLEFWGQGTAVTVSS VL: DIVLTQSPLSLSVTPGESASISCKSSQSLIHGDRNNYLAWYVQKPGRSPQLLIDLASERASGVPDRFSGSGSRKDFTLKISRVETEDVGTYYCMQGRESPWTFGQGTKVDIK", "IC80 (µg/ml) with constrains [µg/mL]": 0.084}

Just so you know, measured IC80 (µg/ml) with constrains for ePGDM5 (antibody, V domains shown) VH: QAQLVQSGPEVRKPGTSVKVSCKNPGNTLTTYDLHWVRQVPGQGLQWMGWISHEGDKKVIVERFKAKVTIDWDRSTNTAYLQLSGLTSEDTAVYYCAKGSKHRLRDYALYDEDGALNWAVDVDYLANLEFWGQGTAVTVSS VL: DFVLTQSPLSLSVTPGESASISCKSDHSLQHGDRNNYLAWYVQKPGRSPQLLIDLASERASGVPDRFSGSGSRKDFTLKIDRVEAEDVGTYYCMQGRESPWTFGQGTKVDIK came out at 0.174

Just so you know, measured IC80 (µg/ml) with constrains for PGDM1400 (antibody, V domains shown) VH: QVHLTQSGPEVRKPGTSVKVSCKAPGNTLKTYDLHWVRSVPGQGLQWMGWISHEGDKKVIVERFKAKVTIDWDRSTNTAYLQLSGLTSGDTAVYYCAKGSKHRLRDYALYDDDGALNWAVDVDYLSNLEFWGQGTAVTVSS VL: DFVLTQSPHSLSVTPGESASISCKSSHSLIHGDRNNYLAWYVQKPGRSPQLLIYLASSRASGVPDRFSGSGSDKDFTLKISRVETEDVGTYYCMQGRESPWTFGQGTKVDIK came out at 0.523

Just so you know, measured IC80 (µg/ml) with constrains for ePGDM13 (antibody, V domains shown) VH: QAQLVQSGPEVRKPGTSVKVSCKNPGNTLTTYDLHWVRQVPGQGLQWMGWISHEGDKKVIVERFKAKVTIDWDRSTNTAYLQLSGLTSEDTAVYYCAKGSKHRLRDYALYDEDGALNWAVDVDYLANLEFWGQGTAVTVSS VL: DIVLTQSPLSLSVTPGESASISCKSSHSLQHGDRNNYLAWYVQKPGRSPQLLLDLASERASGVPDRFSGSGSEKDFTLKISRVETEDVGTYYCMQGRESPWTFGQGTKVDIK came out at 0.228
